Collected IC50 values appear next to each entry.
# experimental.system: Tyrosine-protein kinase JAK3 (Homo sapiens, UniProt P52333)
# Sequence (P52333 whole entry): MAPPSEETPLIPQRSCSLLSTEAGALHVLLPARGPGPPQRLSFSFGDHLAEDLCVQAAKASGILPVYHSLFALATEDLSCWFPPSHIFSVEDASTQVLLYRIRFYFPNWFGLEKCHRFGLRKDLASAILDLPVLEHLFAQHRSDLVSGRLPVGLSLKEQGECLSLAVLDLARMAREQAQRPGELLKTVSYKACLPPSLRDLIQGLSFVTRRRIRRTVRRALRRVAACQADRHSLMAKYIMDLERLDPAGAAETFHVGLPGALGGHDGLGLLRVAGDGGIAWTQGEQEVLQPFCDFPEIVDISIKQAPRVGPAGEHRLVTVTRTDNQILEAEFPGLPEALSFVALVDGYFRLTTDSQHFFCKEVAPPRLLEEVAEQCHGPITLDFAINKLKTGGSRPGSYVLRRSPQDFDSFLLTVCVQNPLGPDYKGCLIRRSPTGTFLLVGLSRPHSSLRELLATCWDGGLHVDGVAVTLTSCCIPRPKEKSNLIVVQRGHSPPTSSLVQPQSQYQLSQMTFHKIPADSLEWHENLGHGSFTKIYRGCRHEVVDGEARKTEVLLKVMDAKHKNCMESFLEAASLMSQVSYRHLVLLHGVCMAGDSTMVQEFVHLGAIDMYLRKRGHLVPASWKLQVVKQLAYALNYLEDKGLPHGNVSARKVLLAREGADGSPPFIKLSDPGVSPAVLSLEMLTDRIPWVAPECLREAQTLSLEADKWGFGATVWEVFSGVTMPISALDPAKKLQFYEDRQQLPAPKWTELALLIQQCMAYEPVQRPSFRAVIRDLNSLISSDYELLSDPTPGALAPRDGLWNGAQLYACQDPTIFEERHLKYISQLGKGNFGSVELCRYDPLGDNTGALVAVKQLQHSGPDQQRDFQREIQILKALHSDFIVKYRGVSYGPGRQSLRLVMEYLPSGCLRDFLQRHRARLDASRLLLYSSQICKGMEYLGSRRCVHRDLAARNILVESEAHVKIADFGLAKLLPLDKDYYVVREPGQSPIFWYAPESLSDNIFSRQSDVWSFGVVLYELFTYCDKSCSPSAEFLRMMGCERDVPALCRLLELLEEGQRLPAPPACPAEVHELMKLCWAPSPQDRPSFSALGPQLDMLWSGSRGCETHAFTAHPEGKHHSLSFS
# protocol.description: Inhibition of JAK3 (unknown origin)

| smiles.data | IC50 |
| --- | --- |
| C=CC(=O)Nc1cccc(-n2cnc3cnc(Nc4ccc(N5CCN(CC)CC5)cc4)nc32)c1 | 67.5 nM |
| C=CC(=O)Nc1cccc(-n2cnc3cnc(Nc4ccc(N5CCN(S(C)(=O)=O)CC5)cc4OC)nc32)c1 | > 100 nM |
| C=CC(=O)Nc1cccc(-n2cnc3cnc(Nc4ccc(N5CCN(C)CC5)cc4OC)nc32)c1 | > 100 nM |
| C=CC(=O)Nc1cccc(-n2c(=O)[nH]c3cnc(Nc4ccc(N5CCOCC5)cc4OC)nc32)c1 | > 100 nM |

====

# experimental.system: Tyrosine-protein kinase BTK (Homo sapiens, UniProt Q06187)
# Sequence (Q06187 whole entry): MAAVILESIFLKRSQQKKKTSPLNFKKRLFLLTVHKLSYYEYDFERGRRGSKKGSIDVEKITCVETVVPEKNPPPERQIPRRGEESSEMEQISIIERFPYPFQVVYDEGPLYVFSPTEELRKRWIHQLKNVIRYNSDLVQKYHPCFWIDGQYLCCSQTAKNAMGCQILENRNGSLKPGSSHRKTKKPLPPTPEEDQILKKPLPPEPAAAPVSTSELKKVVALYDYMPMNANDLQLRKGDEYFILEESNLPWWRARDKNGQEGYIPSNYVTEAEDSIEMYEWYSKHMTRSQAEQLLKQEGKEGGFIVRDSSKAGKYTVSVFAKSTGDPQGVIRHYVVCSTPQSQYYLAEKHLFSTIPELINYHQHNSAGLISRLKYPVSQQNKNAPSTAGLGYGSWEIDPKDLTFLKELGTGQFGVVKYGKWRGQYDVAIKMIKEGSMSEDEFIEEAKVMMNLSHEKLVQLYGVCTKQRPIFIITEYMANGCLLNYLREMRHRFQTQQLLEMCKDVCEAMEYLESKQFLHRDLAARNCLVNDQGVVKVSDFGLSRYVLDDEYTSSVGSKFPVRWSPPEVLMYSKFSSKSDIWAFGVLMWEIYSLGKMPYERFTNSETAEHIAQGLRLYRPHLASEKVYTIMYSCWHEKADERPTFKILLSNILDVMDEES
# protocol.description: Inhibition of recombinant human N-terminal His-tagged BTK expressed in baculovirus infected sf9 cells using poly(4:1 Glu,Tyr) as substrate by ADP-Glo kinase assay
Collected IC50 values appear next to each entry.

| molecule | IC50 |
| --- | --- |
| C=CC(=O)Nc1cccc(-n2c(=O)[nH]c3cnc(Nc4ccc(N5CCOCC5)cc4OC)nc32)c1 | > 100 nM |
| C=CC(=O)Nc1cccc(-n2cnc3cnc(Nc4ccc(OCCCN5CCOCC5)cc4)nc32)c1 | 0.4 nM |
| C=CC(=O)Nc1cccc(-n2cnc3cnc(Nc4ccc(N5CCN(CC)CC5)cc4OC)nc32)c1 | > 100 nM |
| C=CC(=O)Nc1cccc(-n2cnc3cnc(Nc4ccc(OC)cc4)nc32)c1 | 97.1 nM |
| C=CC(=O)Nc1cccc(-n2cnc3cnc(Nc4ccc(N5CCN(C(C)=O)C(C)C5)cc4)nc32)c1 (stereo not drawn) | 0.5 nM |
| C=CC(=O)Nc1cccc(-n2cnc3cnc(Nc4ccc(N5CCN(C)CC5)cc4)nc32)c1 | 10.2 nM |
| C=CC(=O)Nc1cccc(-n2cnc3cnc(Nc4ccc(N5CCN(S(C)(=O)=O)CC5)cc4)nc32)c1 | 17.1 nM |
| C=CC(=O)Nc1cccc(-n2cnc3cnc(Nc4ccc(N5CCOCC5)cc4)nc32)c1 | 15.1 nM |
| C=CC(=O)Nc1cccc(-n2c(=O)[nH]c3cnc(Nc4ccc(N5CCN(CC)CC5)cc4)nc32)c1 | > 100 nM |
| C=CC(=O)Nc1cccc(-n2cnc3cnc(Nc4ccc(N5CCN(CC)CC5)cc4)nc32)c1 | 0.5 nM |
| C=CC(=O)Nc1cccc(-n2cnc3cnc(Nc4ccc(N5CCN(S(C)(=O)=O)CC5)cc4OC)nc32)c1 | > 100 nM |
| C=CC(=O)Nc1cccc(-n2cnc3cnc(Nc4ccc(N5CCN(S(C)(=O)=O)C(C)C5)cc4)nc32)c1 (stereo not drawn) | 13.2 nM |
| C=CC(=O)Nc1cccc(-n2cnc3cnc(Nc4ccc(N5CCN(C)CC5)cc4OC)nc32)c1 | > 100 nM |
